Taken from ChEMBL document CHEMBL1142459.

assay.system: DNA topoisomerase 2-alpha (Homo sapiens)
assay.explanation: Inhibition of human topoisomerase 2 alpha-mediated bacterial plasmid DNA relaxation assessed as pRYG negative supercoiled form at 100 uM
The source made the active and inactive calls. No cut-off for these calls is given here.
Pick one and only one: active, inactive

Field: example entries. Status: answers known.
• COc1cc([C@@H]2c3cc4c(cc3[C@@H](O[C@@H]3O[C@@H]5CO[C@@H](C)O[C@H]5[C@H](O)[C@H]3O)[C@H]3COC(=O)[C@H]23)OCO4)cc(OC)c1O = inactive
• COc1ccc2c(c1)OC[C@@H]1[C@H]2C2=C(OC1(C)C)C(=O)c1ccccc1C2=O = active
• CC1(C)OC2=C(C(=O)c3ccccc3C2=O)[C@H]2c3cc(Br)ccc3OC[C@H]21 = active

Record lookup: outcome of this test for `CC1(C)OC2=C(C(=O)C(=O)c3ccccc32)[C@@H]2c3cc(Br)ccc3OC[C@@H]21` ?
active

----------
assay.system: DNA topoisomerase 2-alpha (Homo sapiens)
assay.explanation: Inhibition of human topoisomerase 2 alpha-mediated Crithidia fasciculate kDNA decatenation at 100 uM
Active and inactive are the calls of the source. The calls are words filed in the database; no cut-off is given here.
Pick one and only one: active, inactive

• CC1(C)OC2=C(C(=O)c3ccccc3C2=O)[C@H]2c3cc(Br)cc(Br)c3OC[C@H]21 = active

Record lookup: outcome of this test for `C[C@H]1CC[C@@H]2[C@@H]1C1=C(OC2(C)C)c2ccccc2C(=O)C1=O` ?
inactive

Record lookup: outcome of this test for `C[C@H]1CC[C@H]2[C@H](C1)C1=C(OC2(C)C)c2ccccc2C(=O)C1=O` ?
inactive

Record lookup: outcome of this test for `C[C@@H]1CC[C@@H]2[C@@H](C1)C1=C(OC2(C)C)C(=O)c2ccccc2C1=O` ?
inactive

Record lookup: outcome of this test for `CC1(C)OC2=C(C(=O)c3ccccc3C2=O)[C@H]2c3cc(Br)ccc3OC[C@H]21` ?
active

----------
assay.system: DNA topoisomerase 2-alpha (Homo sapiens) (UniProt P11388)
Sequence (P11388 whole entry): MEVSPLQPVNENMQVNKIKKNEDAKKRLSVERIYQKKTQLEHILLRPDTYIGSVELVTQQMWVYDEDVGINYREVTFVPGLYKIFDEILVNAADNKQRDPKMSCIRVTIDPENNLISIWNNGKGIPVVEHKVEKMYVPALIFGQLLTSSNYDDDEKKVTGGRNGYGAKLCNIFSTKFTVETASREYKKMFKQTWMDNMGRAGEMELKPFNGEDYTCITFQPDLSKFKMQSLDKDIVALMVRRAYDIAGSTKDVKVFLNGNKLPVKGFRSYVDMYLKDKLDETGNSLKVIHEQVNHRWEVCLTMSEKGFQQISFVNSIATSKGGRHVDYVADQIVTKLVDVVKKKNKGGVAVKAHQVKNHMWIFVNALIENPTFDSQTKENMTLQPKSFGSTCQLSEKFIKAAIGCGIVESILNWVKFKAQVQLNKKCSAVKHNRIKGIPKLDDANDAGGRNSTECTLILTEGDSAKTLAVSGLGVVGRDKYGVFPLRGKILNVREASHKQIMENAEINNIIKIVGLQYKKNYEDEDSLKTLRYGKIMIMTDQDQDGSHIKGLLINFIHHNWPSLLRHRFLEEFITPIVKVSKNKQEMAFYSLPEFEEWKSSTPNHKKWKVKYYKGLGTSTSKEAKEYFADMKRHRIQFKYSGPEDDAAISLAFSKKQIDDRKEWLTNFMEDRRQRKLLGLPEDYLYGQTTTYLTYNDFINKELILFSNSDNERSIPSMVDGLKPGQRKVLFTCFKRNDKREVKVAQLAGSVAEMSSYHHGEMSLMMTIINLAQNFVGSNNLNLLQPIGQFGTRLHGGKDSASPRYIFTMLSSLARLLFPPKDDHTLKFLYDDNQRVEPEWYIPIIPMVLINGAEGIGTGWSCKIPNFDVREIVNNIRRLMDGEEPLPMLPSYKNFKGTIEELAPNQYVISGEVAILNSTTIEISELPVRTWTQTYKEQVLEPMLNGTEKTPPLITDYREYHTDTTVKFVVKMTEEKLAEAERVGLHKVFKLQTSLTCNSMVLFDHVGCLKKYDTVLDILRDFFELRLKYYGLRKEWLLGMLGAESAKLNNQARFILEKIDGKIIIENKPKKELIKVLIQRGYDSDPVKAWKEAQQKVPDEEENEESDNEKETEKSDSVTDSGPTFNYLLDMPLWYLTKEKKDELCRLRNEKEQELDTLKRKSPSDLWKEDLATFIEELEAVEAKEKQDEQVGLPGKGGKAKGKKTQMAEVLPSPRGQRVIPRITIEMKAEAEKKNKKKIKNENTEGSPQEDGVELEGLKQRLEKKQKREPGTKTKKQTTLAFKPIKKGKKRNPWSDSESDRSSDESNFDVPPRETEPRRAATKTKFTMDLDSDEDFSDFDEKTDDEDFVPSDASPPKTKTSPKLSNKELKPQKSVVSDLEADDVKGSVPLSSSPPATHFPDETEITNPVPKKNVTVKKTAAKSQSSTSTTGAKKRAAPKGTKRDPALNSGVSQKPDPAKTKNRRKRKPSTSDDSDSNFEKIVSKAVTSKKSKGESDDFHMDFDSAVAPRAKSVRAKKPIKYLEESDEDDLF
assay.explanation: Inhibition of human topoisomerase 2 alpha-mediated bacterial plasmid DNA relaxation assessed as pRYG negative supercoiled form added 100 uM after relaxation
Active and inactive are the calls of the source. No cut-off for these calls is given here.
readout.type: Activity

* COc1ccc2c(c1)OC[C@H]1[C@@H]2C2=C(OC1(C)C)c1ccccc1C(=O)C2=O | inactive
* CC1(C)OC2=C(C(=O)C(=O)c3ccccc32)[C@@H]2c3cc(Br)ccc3OC[C@@H]21 | inactive
* CC1(C)OC2=C(C(=O)c3ccccc3C2=O)[C@H]2c3c(ccc4ccccc34)OC[C@H]21 | inactive
